# Species: Rattus norvegicus
# METHOD_NOTES: DrugMatrix - Regimen: Daily Repeat
# Assay type: toxicity, organism-based, Sprague-Dawley
# Parameters: regimen Daily Repeat, gender Male, age 6-8 weeks
# EXPERIMENTAL_SETUP: in vivo, iv, 0 mg/kg, 120 h, tissue Blood, dose level Control, time 5 day, vehicle 100 % SALINE
Starred links: 1 amine or outer side, 2 acyl side, 3 side chain; linkers in the order of their positions; H or OH if unused. Positions of bridges follow the written chain, without caps; N, C: chain ends. Non-standard residues stand in square brackets, D forms with d. Residues, ends and D or L forms follow the SMILES beside them. Chains are numbered I, II in the order given. Actinocin(9to1) = Cc1c2oc3c(C)ccc(C(=O)[*:1])c3nc-2c(C(=O)[*:2])c(N)c1=O; NMeV = CN[C@H](C(=O)O)C(C)C; Sar = CNCC(=O)O
The reader will find reported MONOCYTE values listed item by item below.
PROPERTY_LABEL: MONOCYTE

COMPOUND	OBSERVED_MEASUREMENT
Cc1ccc(N(CC2=NCCN2)c2cccc(O)c2)cc1 [PHENTOLAMINE]	0.83%
CC[C@]1(O)C[C@H]2CN(CCc3c([nH]c4ccccc34)[C@@](C(=O)OC)(c3cc4c(cc3OC)N(C=O)[C@H]3[C@@](O)(C(=O)OC)[C@H](OC(C)=O)[C@]5(CC)C=CCN6CC[C@]43[C@@H]65)C2)C1 [VINCRISTINE]	0.5%
Cc1c2oc3c(C)ccc(C(=O)N[C@@H]4C(=O)N[C@H](C(C)C)C(=O)N5CCC[C@H]5C(=O)N(C)CC(=O)N(C)[C@@H](C(C)C)C(=O)O[C@@H]4C)c3nc-2c(C(=O)N[C@@H]2C(=O)N[C@H](C(C)C)C(=O)N3CCC[C@H]3C(=O)N(C)CC(=O)N(C)[C@@H](C(C)C)C(=O)O[C@@H]2C)c(N)c1=O [DACTINOMYCIN] (I: T[dV]P[Sar][NMeV] / II: T[dV]P[Sar][NMeV]; ester I:1-I:C, II:1-II:C; linker I:N-II:N via Actinocin(9to1))	2%
COc1cc2c3cc1Oc1cc(ccc1O)C[C@@H]1c4c(cc(OC)c(O)c4Oc4ccc(cc4)C[C@@H]3N(C)CC2)CC[N+]1(C)C.[Cl-]	0.17%

----------
# Species on record: Rattus norvegicus
# METHOD_NOTES: DrugMatrix - Regimen: Daily Repeat
# Type: toxicity, organism-based, Sprague-Dawley
# Set-up: regimen Daily Repeat, gender Male, age 6-8 weeks
# EXPERIMENTAL_SETUP: in vivo, ip, 2 mg/kg, […], tissue Blood, route intraperitoneal, dose level High, time 28 day, vehicle 100 % SALINE
PROPERTY_LABEL: ABSOLUTE BASOPHIL (cells/µL)

> print(dat)
           substance     property.label  observed.measurement
1  LEAD (II) ACETATE  ABSOLUTE BASOPHIL                    93

----------
# Organism: Rattus norvegicus
# METHOD_NOTES: DrugMatrix - Regimen: Daily Repeat
# Assay type: toxicity, organism-based, Sprague-Dawley
# Set-up: regimen Daily Repeat, gender Male, age 6-8 weeks
# EXPERIMENTAL_SETUP: in vivo, po, 0 mg/kg, 72 h, tissue Blood, route oral GAVAGE, dose level Control, time 3 day, vehicle .5 % CMC
Binary classification by EOSINOPHIL, with 0.5% as an inclusive lower bound for 1.0; all other cases are 0.0.

> print(dat)
                                    molecule  classification
 1  OCCN(CCO)c1nc(N2CCCCC2)c2nc(N(CCO)CCO)nc(N3CCCCC3)c2n1             0.0
 2                                 ClC(Cl)Br             1.0
 3  Cc1nc2n(c(=O)c1CCN1CCC(c3noc4cc(F)ccc34)CC1)CCCC2             0.0
 4    CN1CCN(CCCN2c3ccccc3Sc3ccc(Cl)cc32)CC1             0.0
 5       Nc1ccn([C@H]2CC[C@@H](CO)O2)c(=O)n1             1.0
 6  O=C(CCCN1CC=C(n2c(=O)[nH]c3ccccc32)CC1)c1ccc(F)cc1             1.0
 7  CCn1cc(C(=O)O)c(=O)c2cc(F)c(N3CCNCC3)cc21             0.0
 8  CC1CC(OC(=O)C(O)c2ccccc2)CC(C)(C)C1 (centres undefined) [CYCLANDELATE]             0.0
 9                       N=C(N)NCCN1CCCCCCC1             0.0
10                                 ClC(Br)Br             1.0
11  Cc1ccc(/N=C/N(C)/C=N/c2ccc(C)cc2C)c(C)c1             0.0
12  NC1=NC(=O)C(c2ccccc2)O1 (centres undefined)             0.0
13  C1CCC(C(CC2CCCCN2)C2CCCCC2)CC1 (centres undefined)             1.0
14          CCOP(=S)(OCC)Oc1nc(Cl)c(Cl)cc1Cl             1.0
15  CC(C)(C)NC(=O)[C@@H]1C[C@@H]2CCCC[C@@H]2CN1C[C@@H](O)[C@H](Cc1ccccc1)NC(=O)[C@H](CC(N)=O)NC(=O)c1ccc2ccccc2n1             1.0
16  CCCN1C[C@H](CSC)C[C@@H]2c3cccc4[nH]cc(c34)C[C@H]21 [PERGOLIDE]             1.0
17  CCCCc1oc2ccccc2c1C(=O)c1cc(I)c(OCCN(CC)CC)c(I)c1             0.0
18         Cc1ccc2cc3c(ccc4ccccc43)c3c2c1CC3             0.0
19                COc1nc(C)nc(Cl)c1N=C1NCCN1             0.0
